Entry source: ChEMBL document CHEMBL4732182

experiment: Cytotoxicity against human Huh-7 cells assessed as reduction in cell viability incubated for 3 days by cell-titer glo assay
Format: cell-based
settings: time 3 day
Reported CC50 at 72 h is given for each of the following compounds.

[
  {
    "sample_smiles": "CCOP(=O)(Cc1cccc(COc2ccccc2OC2CCN(Cc3ccc4nc(-c5ccc(OC(F)(F)F)cc5)[nH]c4c3)CC2)c1)OCC",
    "CC50 at 72 h, µM": 4.23
  },
  {
    "sample_smiles": "CCOP(=O)(Cc1cccc(COc2ccccc2CC2CCN(Cc3ccc4nc(-c5cccc(OC(F)(F)F)c5)[nH]c4c3)CC2)c1)OCC",
    "CC50 at 72 h, µM": 4.45
  },
  {
    "sample_smiles": "CCOP(=O)(Cc1ccc(COc2ccccc2OC2CCN(Cc3ccc4nc(-c5ccccc5)[nH]c4c3)CC2)cc1)OCC",
    "CC50 at 72 h, µM": 14.7
  },
  {
    "sample_smiles": "CCOP(=O)(Cc1ccc(COc2ccccc2OC2CCN(Cc3ccc4nc(-c5cccc(OC(F)(F)F)c5)[nH]c4c3)CC2)cc1)OCC",
    "CC50 at 72 h, µM": 14.7
  },
  {
    "sample_smiles": "CCOP(=O)(Cc1cccc(COc2ccccc2CC2CCN(Cc3ccc4nc(-c5ccccc5)[nH]c4c3)CC2)c1)OCC",
    "CC50 at 72 h, µM": 9.17
  },
  {
    "sample_smiles": "CCOP(=O)(Cc1cccc(COc2ccccc2OC2CCN(Cc3ccc4nc(-c5ccccc5)[nH]c4c3)CC2)c1)OCC",
    "CC50 at 72 h, µM": 13.1
  },
  {
    "sample_smiles": "CCOP(=O)(Cc1ccc(COc2ccccc2OC2CCN(Cc3ccc4nc(-c5ccc(OC(F)(F)F)cc5)[nH]c4c3)CC2)cc1)OCC",
    "CC50 at 72 h, µM": 4.2
  }
]
